# procedure.text: yeast display, Sf9 membrane polyspecificity reagent, FACS + sequencing; frameworks hold sequencing errors
endpoint.name: polyreactivity (PSR sort gate)

Sample records with polyreactivity (PSR sort gate):
QVQLVESGGGLVQAGGSLRLSCAASGSTFRANAMGWYRQAPGKERELVAAISSGGSTYYADSVKGRFTISRDNAKNTVYLQMNSLKPEDTAVYYCAAVTVKYDESGIYYSDDDYWGQGTQVTVSS high polyreactivity
QVQLVESGGGLVQAGGSLRLSCAASGMTFTKNVMGWYRQAPGKEWELVAVISRSGGSTYYADSVKGRFTISRDNAKNTVYLQMNSLKPEDTAVYYCTVKGPGPSRGNYWGQVTQVTVSS low polyreactivity
QVQLVESGGGLVQAGGSLRLSCAASGFTFFDYVMGWYRQAPGKERELVAAISSSGGSTNYADSVKGRFTISRDNAKNTVYLQMNSLKPQDTAVYYCAAEDFWDDVEYWGQGTQVTVSS low polyreactivity
QVQLVESWGGLVQAGGSLRLSCAASGSIFSVYAMGWYRQAPGKERELVAAITSGGGTKYADSLKGRFTISRDNAKNTVYLQMNSLKPEDTAVYYCAAESFSDGSPYNYWGQGTQVTVSS low polyreactivity
QVQLVESGGGLVQAGGSLRLSCAASGRTFKYYAMGWYRQAPGKERELVAAISVSGGRTYYADSVKGRFTISRDNAKNTVYLQMNSLKPEDTAVYYCNAVRYVHPEDYWGQGTQVTVSS high polyreactivity
QVQLVESGGGLVQAGGSLRLSCAASGITFDYYAMGWYRQAPGKERELVAAISYSGGSTYYADSVKGRFTISRDNAKNTVYLQMNSLKPEDTAVYYCAAETFTISSDYYYWGQGTQVTVSS low polyreactivity
QVQLVESGGGLVQAGGSLRLSCAASGITFGYNTMGWYRQAPGKERELVAAISGSGGRTYYADSLKGRFTISRDNSKNTVYLQMNSLKPEDTAVYYCAARWPIWSSLYDYWGQGTQVTVSS high polyreactivity
QVQLVESGGGLVQAVGSLRLSCAASGLIFERYAMGSYIQAPGKEREFVAAISKRGGSTYYADSVKGRFTISRDNAKNTVYLQMNSLKPEDTAVYDCAVQPNYYGMGYCGQGTQVTVSS high polyreactivity

Input line: Requested field: polyreactivity (PSR sort gate). Item: QVQLVESGGGLVQAGGSLRLSCAASGIIFIKYAMGWYRQAPGKERELVAAITSGGSTHYADSVKGRFTISRDNAKNTVYLQMNSLKPEETAVYYCNADILRHVAYFKDRYQAGSYWGQGTQVTVSS
Output line: low polyreactivity

Input line: What value of polyreactivity (PSR sort gate) has been reported for the following sequence? QVQLVESGGGLVQAGGSLRLSCAASGSIFVWYDMGWYRQAPGKERELVATFSLSGVSTYYADSVKGRFTISRDNAKNTVYLQMNSLKPEDSAVYYCAADFVEQGEDDYWGQGTQVTVSS
Output line: low polyreactivity

Input line: Requested field: polyreactivity (PSR sort gate). Item: QVQLVESGGGIVQAGGSLRLSWAASGSINYRNARGCYRQAPGKERELVAAISSDGSTNYADSVKGRFTISRDNAKNTVYLQMNRLKPEDTAVYSCASPWTQILDYWGKGTQVTVSS
Output line: low polyreactivity

* * *

# procedure.text: yeast display, Sf9 membrane polyspecificity reagent, FACS + sequencing; frameworks hold sequencing errors
endpoint.name: polyreactivity (PSR sort gate)

Reference set (5 entries):
QVQLVESGGGLVQAGGSLRLSCAASGSLFRYYVMGWYRQAPGKERELVAAISSRGGSTYYADSVKGRFTISRDNAKNSVYLLMNSLKPEDTAFYYCAARFGGWDRGLDYWGQGTLVTVSS high polyreactivity
QVQLVESGGGLVQAGGSLRLSCAASGSIFVNYAMGWYRQAPGKERELVAAITLRGGSTFYADSVKGRFTISRDNAKNTVYLQMNSLKPEDTAVYYCAASSLRYRAYKSLFDYWGQGTQVTVSS low polyreactivity
QVQLVESGGGLVQAGGSLRLSCAASGFTFRSNVMGWYRQATGKERELVAAISWSGGSTYYADSVKGRFTISRDNAKNNVYLQMNSLKPEDTAVYYCATVQVVGPWSYRKLDYWGQGTQVTVSS high polyreactivity
QVQLVESGGGLVQAGGSLRLSCAASGSIFRAYAMGWYRQAPGKERELVAAISIGGRTYYADSVKGRFTISRDNAKNTVYLQMNSLKPEDTAVYYCAAVRSYVKGGMYYWGQGTQVTVSS low polyreactivity
QGQLVESGGGLVQAGGSLRLSCAASGRIFEFNARGWYRQAPGKERELVAANSRSGGSTYYADSVKGRFTISRDKAKNTVYLQMNTQKPEHTAVYYCNAVYHYYPLYYWKYGYWGQGTQVTVSS low polyreactivity

Input line: Fill blank: measured polyreactivity (PSR sort gate) of the sequence QVHLVESGGGLVQAGGSLRLSCPASGRIFYYYTMGCYRQAPGKERELVAAITSGGSTYYADSVKGRFTISRDNAKNTVYLQMYSLKQEDTAVYYCIAEFDEKYDYWGQGTQVTVSS is ____.
Output line: low polyreactivity

Input line: Reported polyreactivity (PSR sort gate) for QVQLVESGGGLVQAGGSLRLICAASGRIFRYNAMGWYRQAPGKERELVAAISSVGSTNYADSVKGRFTISRDNAKNTVYLQMNSLKPEDTAVYYCNAVVRSYVKTYRYYKVDYWGQGTQVTVSS : what is it?
Output line: high polyreactivity

Input line: Request the reported polyreactivity (PSR sort gate) associated with QVQLVESGGGLVQAGGSLRLSCAASGFIFSYYAMGWYRQAPGKERELVAAISRNGGRTYYADSVKGRFTISRDNAKNTVYLQMNSLKPEDTAVYYCAATTYRTSSYIRYGSPKHDDYWGQGTQVTVSS
Output line: high polyreactivity

Where do these numbers come from? They come from the nanobody polyreactivity screen of Harvey et al. (2022).
